Reported combination Emax values for a set of molecules
- Test system: NCI-H847 (Small Cell Lung Carcinoma)
- method: combination Emax (second highest fraction inhibited in the dose matrix, 72 h); higher = more inhibition; extreme values may be limits of the assay
Enter a number only.

molecule	assayed_target	combination Emax
COc1cc2c(cc1OCCCCCOc1cc3c(cc1OC)C(=O)N1C=C(C)C[C@H]1C=N3)N=C[C@@H]1CC(C)=CN1C2=O [SG3199] + O=C(c1cc(Cc2n[nH]c(=O)c3ccccc23)ccc1F)N1CCN(C(=O)C2CC2)CC1 [Olaparib] (first compound max 0.001 µM, 7x7, partner max 10 µM)	NCI-H847 (Small Cell Lung Carcinoma)	0.509

Req: combination Emax for CN(CCO)CC[C@H](CSc1ccccc1)Nc1ccc(S(=O)(=O)NC(=O)c2ccc(N3CCC([C@@H](O)c4ccccc4-c4ccc(Cl)cc4)CC3)cc2)cc1S(=O)(=O)C(F)(F)F [AZD4320] + CCN(CCO)CCCOc1ccc2c(Nc3cc(CC(=O)Nc4cccc(F)c4)[nH]n3)ncnc2c1 [AZD2811] (first compound max 1 µM, 7x7, partner max 1 µM) ?
Resp: 1
